Molecular target: Neutral alpha-glucosidase AB (Homo sapiens)
Sequence (whole entry): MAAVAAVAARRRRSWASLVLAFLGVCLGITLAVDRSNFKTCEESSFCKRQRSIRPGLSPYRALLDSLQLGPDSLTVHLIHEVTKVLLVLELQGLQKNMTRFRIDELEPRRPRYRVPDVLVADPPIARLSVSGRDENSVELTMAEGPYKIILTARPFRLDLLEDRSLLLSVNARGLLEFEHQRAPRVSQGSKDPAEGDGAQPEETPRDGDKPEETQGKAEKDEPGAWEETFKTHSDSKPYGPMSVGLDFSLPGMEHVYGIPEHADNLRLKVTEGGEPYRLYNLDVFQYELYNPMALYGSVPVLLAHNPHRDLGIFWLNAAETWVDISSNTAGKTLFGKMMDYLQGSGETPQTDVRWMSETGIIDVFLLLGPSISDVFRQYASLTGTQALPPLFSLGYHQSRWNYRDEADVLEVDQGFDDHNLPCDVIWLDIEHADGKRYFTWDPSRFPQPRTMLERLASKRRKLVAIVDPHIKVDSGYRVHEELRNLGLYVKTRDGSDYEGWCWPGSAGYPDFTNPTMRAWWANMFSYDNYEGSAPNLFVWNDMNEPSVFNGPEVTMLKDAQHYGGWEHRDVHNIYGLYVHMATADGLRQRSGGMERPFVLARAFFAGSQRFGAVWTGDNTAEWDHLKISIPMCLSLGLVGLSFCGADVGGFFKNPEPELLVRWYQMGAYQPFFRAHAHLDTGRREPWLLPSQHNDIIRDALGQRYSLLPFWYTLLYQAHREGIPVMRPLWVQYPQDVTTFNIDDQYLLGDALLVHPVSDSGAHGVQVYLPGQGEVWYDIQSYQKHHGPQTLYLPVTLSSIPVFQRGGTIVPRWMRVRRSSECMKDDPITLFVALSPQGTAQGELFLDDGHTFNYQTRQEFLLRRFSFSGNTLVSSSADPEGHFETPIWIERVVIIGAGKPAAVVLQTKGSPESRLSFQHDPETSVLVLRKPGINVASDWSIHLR
Test: Percentage inhibition (100 uM) against Alpha glucosidase
Binning rule for recorded inhibition: low value (below 50%), medium value (50% to below 90%), high value (90% or more)

A selection of reference data follows.
N#Cc1c(N2CCc3ccccc3C2)cc(-c2ccc(Cl)cc2)c2c1CCCCCC2; low value
N#Cc1c(N2CCc3ccccc3C2)cc(-c2cccc3ccccc23)c2c1-c1ccccc1SC2; high value
N#Cc1c(N2CCc3ccccc3C2)cc(-c2ccc(Br)cc2)oc1=O; medium value
N#Cc1c(N2CCc3ccccc3C2)cc(-c2cccc3ccccc23)c2c1-c1ccccc1CC2; high value
N#Cc1c(N2CCc3ccccc3C2)cc(-c2cccc3ccccc23)c2c1CCCC2; medium value

Exercise: Bin? N#Cc1c(N2CCc3ccccc3C2)cc(-c2ccc(Cl)cc2)c2c1CCCC2
Key: low value

Exercise: // next record N#Cc1c(N2CCc3ccccc3C2)cc(-c2ccc(Cl)cc2)c2c1CCCCC2
Key: low value

Exercise: // next record N#Cc1c(N2CCc3ccccc3C2)cc(-c2ccc(Cl)cc2)oc1=O
Key: medium value

Exercise: // next record N#Cc1c(-c2ccc(C(F)(F)F)cc2)cc(-c2ccc3ccc4cccc5ccc2c3c45)cc1N1CCCC1
Key: high value

Exercise: // next record N#Cc1c(N2CCc3ccccc3C2)cc(-c2cccc3ccccc23)c2c1CCSC2
Key: high value
